# Tested on: HT-1080
# ASSAY_NOTES: Lethality in human HT-1080 cells assessed as inhibition of cell viability incubated for 24 hrs by MTT assay
# Type: functional, cell-based
# CONDITION: HT-1080, 24 h
Criterion: IC50 strictly under 7 µM. Met: condition met. Not met: condition not met.

1) CN(C)c1ccc(C(=O)N2CCC(Cn3c(C(F)(F)F)nc4ccccc43)CC2)cc1 : condition not met
2) CN(C)C(=O)c1ccc(N2CCC(Cn3c(C(F)(F)F)nc4ccccc43)CC2)cc1Cl : condition met
3) CN(C)C(=O)c1ccc(N2CCC(Cn3c(C(F)(F)F)nc4ccccc43)CC2)cc1 : condition met
4) CS(=O)(=O)c1cc(N2CCC(Cn3c(C(F)(F)F)nc4ccccc43)CC2)ccc1CO : condition not met
5) CN(C)S(=O)(=O)c1ccc(N2CCC(Cn3c(C(F)(F)F)nc4ccccc43)CC2)cc1 : condition met

###

# ASSAY_NOTES: Metabolic stability in […] rat microsomes assessed as half life at 1 uM in presence of NADPH by LC-MS analysis
# Type: ADME, Liver, Microsome
TEST_READOUT: half-life at 1 µM (min)

1. O=S(=O)(c1ccc(N2CCC(Cn3c(C(F)(F)F)nc4ccccc43)CC2)cc1)N1CCOCC1 : 7.4
2. CCOc1ccccc1-n1c(C(C)N2CCN(C(=O)COc3ccc(Cl)cc3)CC2)nc2ccccc2c1=O (centres undefined) : 3.5
3. CN(C)S(=O)(=O)c1ccc(N2CCC(Cn3c(C(F)(F)F)nc4ccccc43)CC2)cc1 : 10.4
4. O=C(c1ccc(N2CCC(Cn3c(C(F)(F)F)nc4ccccc43)CC2)cc1)N1CCCC1 : 8.6

###

# Test system: HT-1080
# ASSAY_NOTES: Lethality in human HT-1080 cells assessed as inhibition of cell viability incubated for 24 hrs by MTT assay
# Type: functional, cell-based
# CONDITION: HT-1080, 24 h
pIC50: −log10 of the molar value.
Recorded measurements of pIC50, one per entry
TEST_READOUT: pIC50

1) O=S(=O)(c1ccc(N2CCC(Cn3c(C(F)(F)F)nc4ccccc43)CC2)cc1)N1CCOCC1 : 5.72
2) COC(=O)c1ccc(N2CCC(Cn3c(C(F)(F)F)nc4ccccc43)CC2)cc1S(C)(=O)=O : 5.18
3) CN(C)C(=O)c1ccc(N2CCC(Cn3c(C(F)(F)F)nc4ccccc43)CC2)cc1F : 5.68
4) O=C(COc1ccc(Cl)cc1)N1CCC(Cn2c(C(F)(F)F)nc3ccccc32)CC1 : 5.50
5) CCN(CC)C(=O)c1ccc(N2CCC(Cn3c(C(F)(F)F)nc4ccccc43)CC2)cc1 : 5.66
6) CCN(CC)C(=O)c1ccc(N2CCC(Cn3c(C(F)(F)F)nc4ccccc43)CC2)cn1 : 5.46
7) CCOc1ccccc1-n1c(C(C)N2CCN(C(=O)COc3ccc(Cl)cc3)CC2)nc2ccccc2c1=O (centres undefined) [ERASTIN] : 5.82
8) O=C(c1ccc(N2CCC(Cn3c(C(F)(F)F)nc4ccccc43)CC2)cc1)N1CCCC1 : 5.83
9) CN(C)c1ccc(CC(=O)N2CCC(Cn3c(C(F)(F)F)nc4ccccc43)CC2)cc1 : 5.46

###

# ASSAY_NOTES: Metabolic stability in human liver microsomes assessed as intrinsic clearance measured per mg protein at 1 uM in presence of NADPH by LC-MS analysis
# Type: ADME, Microsome
# CONDITION: read-out: CLH
Recorded measurements of microsomal CLint at 1 µM, one per entry
TEST_READOUT: microsomal CLint at 1 µM (µL/min/mg)

1) O=C(c1ccc(N2CCC(Cn3c(C(F)(F)F)nc4ccccc43)CC2)cc1)N1CCCC1 : 105
2) CN(C)S(=O)(=O)c1ccc(N2CCC(Cn3c(C(F)(F)F)nc4ccccc43)CC2)cc1 : 88.6
3) CCOc1ccccc1-n1c(C(C)N2CCN(C(=O)COc3ccc(Cl)cc3)CC2)nc2ccccc2c1=O (centres undefined) [ERASTIN] : 349
4) O=S(=O)(c1ccc(N2CCC(Cn3c(C(F)(F)F)nc4ccccc43)CC2)cc1)N1CCOCC1 : 118

###

Recorded measurements of microsomal CLint at 1 µM, one per entry
# ASSAY_NOTES: Metabolic stability in rat liver microsomes assessed as intrinsic clearance measured per mg protein at 1 uM in presence of NADPH by LC-MS analysis
# Format: ADME, Microsome
# CONDITION: read-out: CLH
TEST_READOUT: microsomal CLint at 1 µM (µL/min/mg)

1) CN(C)S(=O)(=O)c1ccc(N2CCC(Cn3c(C(F)(F)F)nc4ccccc43)CC2)cc1 : 133
2) CCOc1ccccc1-n1c(C(C)N2CCN(C(=O)COc3ccc(Cl)cc3)CC2)nc2ccccc2c1=O (centres undefined) : 400
3) O=S(=O)(c1ccc(N2CCC(Cn3c(C(F)(F)F)nc4ccccc43)CC2)cc1)N1CCOCC1 : 187
4) O=C(c1ccc(N2CCC(Cn3c(C(F)(F)F)nc4ccccc43)CC2)cc1)N1CCCC1 : 164
